For each entry below, report its cell number change value.
TEST_METHOD_NOTES: qHTS Assay for Lipid Storage Modulators in Drosophila S3 Cells;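 further: cells counted by Cell Tracker Red CMTPX staining in the red channel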
CONDITIONS_USED: BODIPY lipid droplet fluorescence, 18-24 h, cells fed with added oleic acid; measured here: cell count max response
The campaign covered roughly 320,000 compounds. About 2,100 (0.66%) were called active. Inconclusive results (about 53%) are left out. Many of the other results were omitted from the sample, so actives are more common in it than they were.
Give bare numbers, in %.

{"columns": ["COMPOUND", "DATA_VALUE"],
 "data": [
  ["O=C(CNc1ccc(F)cc1)N/N=C/c1c(O)ccc2ccccc12", -11.6],
  ["Oc1ccc(C[C@H]2CNCCN2CC2(c3ccccc3)CC2)cc1", 19.8],
  ["COC(=O)/C=C1\\NCCNC1=O", 9.92],
  ["COc1ccc(CC(=O)NNC(=O)c2ccco2)cc1OC", -12.7]
]}

// each listed compound needs a value for cell number change
1. O=C(NNC(=O)c1ccc2ccccc2c1O)Nc1ccc(F)cc1
2. Cc1ccc(-c2nnc(SCC(=O)Nc3nccs3)n2N)cc1
3. CC(=O)Nc1ccc(S(=O)(=O)NC2CC2)cc1
4. Cc1ccc(N=Nc2ccc3ccccc3c2O)cc1
5. CCNC(=S)N1CCc2cc(OC)c(OC)cc2C1COc1ccccc1OC (stereo not drawn)

22.7
-14.7
-7.3
1.47
-25.8

---

For each entry below, report its cell number change value.
TEST_METHOD_NOTES: qHTS Assay for Lipid Storage Modulators in Drosophila S3 Cells;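 further: cells counted by Cell Tracker Red CMTPX staining in the red channel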
CONDITIONS_USED: BODIPY lipid droplet fluorescence, 18-24 h, cells fed with added oleic acid; measured here: cell count max response
About 2,100 (0.66%) of roughly 320,000 compounds were called active. Another 53% or so got no clear call; they are omitted. The sample as a whole holds a higher share of actives than the screen did.
Answers are plain numbers, in %.

{"columns": ["MOLECULE", "UNIT_OF_MEASURE", "DATA_VALUE"],
 "data": [
  ["CC(C)CCN1CC(C(=O)NC(C)C)CC1=O (configuration not stated)", "%", -5.32],
  ["COc1ccc(NC(=O)CSc2nnnn2C2CCCC2)cc1", "%", 9.25],
  ["Cc1cc(C)nc(SCC(N)=O)n1", "%", 14.6]
]}

// each listed molecule needs a value for cell number change
1. COc1cc(NC(=O)CSc2nnnn2C2CCCC2)cc(OC)c1
2. O=[N+]([O-])c1ccc(/C=N/N=C/c2ccc([N+](=O)[O-])o2)o1
3. CCOC(=O)CSc1nc(C)cc(C)n1
4. Clc1ccc(C2=CSC3=Nc4cccc5cccc(c45)N23)cc1

[5.13, 21.7, 4.86, -10.2]

---

TEST_METHOD_NOTES: qHTS Assay for Lipid Storage Modulators in Drosophila S3 Cells;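 further: cells counted by Cell Tracker Red CMTPX staining in the red channel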
CONDITIONS_USED: BODIPY lipid droplet fluorescence, 18-24 h, cells fed with added oleic acid; measured here: cell count max response
In all, about 320,000 compounds went through this assay and about 2,100 (0.66%) were called active. Not shown: some 53% with an inconclusive outcome. The full list was thinned out, with actives kept by preference.
OBSERVABLE: cell number change (%)
One number for each entry, in %.

Below, each entry is followed by its recorded cell number change result.
{"columns": ["COMPOUND", "OBSERVABLE", "DATA_VALUE"],
 "data": [
  ["COC(=O)C1=C(C)N=C2SC(C#N)=C(N)N2C1c1cc(OC)c(OC)c(OC)c1 (stereo not given)", "cell number change", 2.55],
  ["Cc1ccc(SCc2ccc(C(=O)NCc3cccnc3)cc2)cc1", "cell number change", 5.01],
  ["CC1CCCC(C)N1C(=O)CSc1nnc(NC(=O)c2cccs2)s1 (stereo not given)", "cell number change", 3.67],
  ["Cc1ccc(S(=O)(=O)Oc2ccc(/C=C3/C(=N)N4C(=NC3=O)SN=C4S(C)(=O)=O)cc2)cc1", "cell number change", -5.51],
  ["CC1CCN(c2cc(C#N)c(C#N)cc2[N+](=O)[O-])CC1", "cell number change", 0.344]
]}

Look up cell number change for the entries below, preserving their order.
1. C=CCn1c(=S)[nH]c2cc(C(=O)NCCc3ccc(S(N)(=O)=O)cc3)ccc2c1=O
2. Cc1cccc(CS(=O)(=O)c2ncc(Cl)c(C(=O)Nc3c(C)cccc3C)n2)c1
3. O=C(NCC1CCCO1)C1CCN(C2CCN(C(=O)Cc3ccsc3)CC2)CC1 (stereo not given)
4. O=c1c2ccccc2nc(SCc2nc3ccccc3s2)n1CCCO

1. 16.5
2. 14.9
3. -8.37
4. -14.5

Kindly give each listed record's cell number change.
1. CCN(CC)CCCNC(=S)N(Cc1cccnc1)Cc1cc2cc(C)ccc2[nH]c1=O
2. O=C(CSc1ccc(C(F)(F)F)cc1[N+](=O)[O-])N1CCOCC1
3. Cc1cc(NC(=O)Cn2nc3c(cc2=O)CCCC3)ccc1Br
4. C[C@H](C(=O)O)c1cccc(C(=O)c2ccccc2)c1
5. O=C(C1CCN(Cc2cccs2)CC1)N1CCN(Cc2ccc3c(c2)OCO3)CC1

1. 5.5
2. -7.3
3. 19.1
4. 5.73
5. 20.4

// batch mode: one cell number change value per listed entry
1. N#Cc1c(OCC(=O)c2ccccc2)nc2c(c1-c1ccco1)CCc1ccccc1-2
2. O=c1oc2ccc(F)cc2c2c1C1O[C@](c3ccsc3)(Cc3c1ccc1ccccc31)O2
3. COc1ccc(-n2c(=O)cc(N3CCN(Cc4ccccc4)CC3)[nH]c2=O)cc1

1: -13; 2: 2.65; 3: -3.15

Hi! Can you tell me cell number change for each of these compounds?
1. O=C(Nc1ccc(OC(F)F)cc1)c1ccccn1
2. CCOC(=O)N1CCN(CC(O)COc2ccc3c(c2)CCC3)CC1 (stereo not given)
3. COC(=O)CN(c1cccc(C(C)=O)c1)S(C)(=O)=O

1: 7.91; 2: -3.83; 3: -12.6
